Overview of reported IC50 across a group of compounds:
target: p110δ/p85α (Homo sapiens (Human), UniProt O00329); test: PI 3-Kinase (human) HTRF assay, p110δ/p85α; format: biochemical; settings: read-out: PI3K δ IC50
Sequence (O00329 whole entry): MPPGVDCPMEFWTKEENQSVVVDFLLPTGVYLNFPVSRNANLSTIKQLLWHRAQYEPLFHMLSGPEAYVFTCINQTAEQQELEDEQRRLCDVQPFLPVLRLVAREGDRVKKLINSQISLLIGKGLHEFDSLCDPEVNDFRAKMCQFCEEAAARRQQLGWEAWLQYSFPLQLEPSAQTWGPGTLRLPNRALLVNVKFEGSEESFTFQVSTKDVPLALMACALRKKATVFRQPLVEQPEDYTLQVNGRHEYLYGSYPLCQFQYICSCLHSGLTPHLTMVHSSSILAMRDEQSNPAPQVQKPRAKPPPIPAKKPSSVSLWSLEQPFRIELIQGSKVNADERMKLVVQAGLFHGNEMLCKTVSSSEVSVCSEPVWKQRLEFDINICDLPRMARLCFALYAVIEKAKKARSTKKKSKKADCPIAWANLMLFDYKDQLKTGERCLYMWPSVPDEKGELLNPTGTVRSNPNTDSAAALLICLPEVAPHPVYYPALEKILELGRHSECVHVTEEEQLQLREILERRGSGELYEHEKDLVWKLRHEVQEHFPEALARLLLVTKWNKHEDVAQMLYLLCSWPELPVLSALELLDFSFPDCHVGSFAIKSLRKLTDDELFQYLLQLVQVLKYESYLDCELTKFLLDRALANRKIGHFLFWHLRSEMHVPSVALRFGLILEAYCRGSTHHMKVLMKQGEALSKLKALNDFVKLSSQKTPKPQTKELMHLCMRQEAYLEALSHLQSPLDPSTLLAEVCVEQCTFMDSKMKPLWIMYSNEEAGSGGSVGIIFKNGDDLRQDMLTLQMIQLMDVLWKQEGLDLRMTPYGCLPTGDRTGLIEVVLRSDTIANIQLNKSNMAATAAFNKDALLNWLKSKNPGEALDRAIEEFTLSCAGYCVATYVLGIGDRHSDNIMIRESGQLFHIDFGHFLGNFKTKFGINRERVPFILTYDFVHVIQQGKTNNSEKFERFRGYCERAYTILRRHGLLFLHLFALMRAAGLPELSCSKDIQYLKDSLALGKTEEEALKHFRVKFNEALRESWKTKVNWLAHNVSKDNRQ
Sequence (P27986 whole entry partner): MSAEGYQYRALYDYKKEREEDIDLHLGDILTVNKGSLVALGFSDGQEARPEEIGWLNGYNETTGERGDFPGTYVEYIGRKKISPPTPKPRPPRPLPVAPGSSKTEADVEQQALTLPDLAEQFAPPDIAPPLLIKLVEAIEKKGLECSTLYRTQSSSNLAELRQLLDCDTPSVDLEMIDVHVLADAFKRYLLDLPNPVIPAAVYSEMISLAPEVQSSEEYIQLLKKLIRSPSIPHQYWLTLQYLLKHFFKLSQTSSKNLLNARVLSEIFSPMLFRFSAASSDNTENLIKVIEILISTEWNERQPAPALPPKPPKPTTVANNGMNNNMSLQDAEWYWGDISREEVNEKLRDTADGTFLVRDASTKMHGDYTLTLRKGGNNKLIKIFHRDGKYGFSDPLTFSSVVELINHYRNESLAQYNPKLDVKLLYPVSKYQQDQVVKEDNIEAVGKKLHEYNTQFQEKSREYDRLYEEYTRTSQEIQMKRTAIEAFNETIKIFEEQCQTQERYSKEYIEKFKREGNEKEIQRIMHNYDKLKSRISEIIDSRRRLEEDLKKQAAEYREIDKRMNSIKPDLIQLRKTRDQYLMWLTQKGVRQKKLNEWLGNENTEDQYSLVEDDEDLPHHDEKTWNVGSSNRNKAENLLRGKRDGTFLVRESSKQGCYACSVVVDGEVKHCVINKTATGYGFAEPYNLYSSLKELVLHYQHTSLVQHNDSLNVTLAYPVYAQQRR

Observe how each entry below is paired with its result.
INSERT INTO measurements (entry_smiles, meas_value) VALUES
  ('Nc1nc2cccc(-c3ccc4nccc(-c5ccncc5)c4c3)c2o1', '< 1 µM'),
  ('Nc1nc2cc(-c3ccc4ncc(N5CCCC5)nc4c3)ccc2o1', '< 1 µM'),
  ('CN1CCC(Oc2ncnc3ccc(-c4ccc5oc(N)nc5c4)cc23)CC1', '< 1 µM'),
  ('CN(C)CC(=O)N1CCC(Nc2ncnc3ccc(-c4ccc5oc(N)nc5c4)cc23)CC1', '< 1 µM'),
  ('Nc1nc2cc(-c3ccc4ncc(N5CCN(CCO)CC5)nc4c3)ccc2o1', '< 10 µM'),
  ('CC(=O)N1CCC(Nc2ncnc3ccc(-c4ccc5oc(N)nc5c4)cc23)CC1', '< 1 µM');

Challenge: // query IC50 value for entry Nc1nc2cc(-c3ccn4ncc(-c5ccncc5)c4n3)ccc2o1
Response given: < 0.1 µM

Challenge: Can you look up the measured IC50 of Nc1nc2cc(-c3ccc4ncc(C(=O)NCCO)n4c3)ccc2o1 for me?
Response given: < 1 µM

Challenge: Reported IC50 for COC(=O)N1CCN(c2cnc3ccc(-c4ccc5oc(N)nc5c4)cc3n2)CC1 : what is it?
Response given: < 10 µM

----------
target: p110β/p85α (Homo sapiens (Human), UniProt P42338); assay: PI 3-Kinase (human) HTRF assay, p110β/p85α; type: biochemical; conditions: in vitro; read-out: PI3K β IC50
Sequence (P42338 whole entry, one chain of several): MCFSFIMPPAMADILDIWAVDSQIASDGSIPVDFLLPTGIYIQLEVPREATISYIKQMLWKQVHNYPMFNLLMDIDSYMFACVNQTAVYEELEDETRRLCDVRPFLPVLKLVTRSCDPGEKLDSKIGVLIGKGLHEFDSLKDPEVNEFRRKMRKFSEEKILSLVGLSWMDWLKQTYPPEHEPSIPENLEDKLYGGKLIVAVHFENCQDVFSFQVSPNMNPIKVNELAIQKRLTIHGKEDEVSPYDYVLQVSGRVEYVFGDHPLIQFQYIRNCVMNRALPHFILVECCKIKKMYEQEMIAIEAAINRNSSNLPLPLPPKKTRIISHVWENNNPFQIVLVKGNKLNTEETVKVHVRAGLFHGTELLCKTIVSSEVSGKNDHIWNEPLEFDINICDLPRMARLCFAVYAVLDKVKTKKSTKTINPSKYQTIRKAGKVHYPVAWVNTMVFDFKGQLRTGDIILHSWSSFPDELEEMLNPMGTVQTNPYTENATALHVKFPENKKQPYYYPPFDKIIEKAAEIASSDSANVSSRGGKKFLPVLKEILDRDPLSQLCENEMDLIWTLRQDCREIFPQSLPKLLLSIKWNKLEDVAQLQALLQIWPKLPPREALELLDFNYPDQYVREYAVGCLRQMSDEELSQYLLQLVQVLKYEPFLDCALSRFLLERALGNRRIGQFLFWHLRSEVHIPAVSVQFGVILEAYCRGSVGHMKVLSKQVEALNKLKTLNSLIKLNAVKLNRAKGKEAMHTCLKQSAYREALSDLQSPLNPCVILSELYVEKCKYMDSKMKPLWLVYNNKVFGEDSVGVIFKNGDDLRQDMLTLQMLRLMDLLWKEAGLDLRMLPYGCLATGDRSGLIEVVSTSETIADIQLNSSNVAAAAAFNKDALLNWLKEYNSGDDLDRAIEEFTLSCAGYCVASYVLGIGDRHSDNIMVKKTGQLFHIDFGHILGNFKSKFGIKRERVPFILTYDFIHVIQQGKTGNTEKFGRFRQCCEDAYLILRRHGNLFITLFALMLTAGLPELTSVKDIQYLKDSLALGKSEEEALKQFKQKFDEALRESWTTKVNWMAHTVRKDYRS
pIC50: −log10 of the molar value.
Parameter: pIC50. Scope: all listed entries.

INSERT INTO results (entry_smiles, assayed_target, meas_value) VALUES
  ('C[C@H]1CN(c2cnc3ccc(-c4ccc5nc(N)sc5c4)cc3n2)CCN1', 'p110β/p85α (Homo sapiens (Human), UniProt P42338)', '> 6.00'),
  ('CN1CCC(Nc2ncnc3ccc(-c4ccc5oc(N)nc5c4)nc23)CC1', 'p110β/p85α (Homo sapiens (Human), UniProt P42338)', '> 6.00'),
  ('CC(=O)Nc1nc2ccc(-c3ccc4oc(N)nc4c3)cc2s1', 'p110β/p85α (Homo sapiens (Human), UniProt P42338)', '> 6.00'),
  ('Nc1nc2cc(-c3ccc4ncc(N5CC(N)C5)nc4c3)ccc2o1', 'p110β/p85α (Homo sapiens (Human), UniProt P42338)', '> 6.00');

Next, consider the following molecule.
Challenge: What does the data say about its pIC50? Entry: CS(=O)(=O)CCN1CCN(C(=O)c2cnc3ccc(-c4ccc5oc(N)nc5c4)cn23)CC1
Response given: > 5.00

----------
biological target: p110γ (Homo sapiens (Human)); assay: PI 3-Kinase (human) HTRF assay, p110γ; type: biochemical; conditions: in vitro; read-out: PI3K γ IC50
Sequence (P48736 whole entry): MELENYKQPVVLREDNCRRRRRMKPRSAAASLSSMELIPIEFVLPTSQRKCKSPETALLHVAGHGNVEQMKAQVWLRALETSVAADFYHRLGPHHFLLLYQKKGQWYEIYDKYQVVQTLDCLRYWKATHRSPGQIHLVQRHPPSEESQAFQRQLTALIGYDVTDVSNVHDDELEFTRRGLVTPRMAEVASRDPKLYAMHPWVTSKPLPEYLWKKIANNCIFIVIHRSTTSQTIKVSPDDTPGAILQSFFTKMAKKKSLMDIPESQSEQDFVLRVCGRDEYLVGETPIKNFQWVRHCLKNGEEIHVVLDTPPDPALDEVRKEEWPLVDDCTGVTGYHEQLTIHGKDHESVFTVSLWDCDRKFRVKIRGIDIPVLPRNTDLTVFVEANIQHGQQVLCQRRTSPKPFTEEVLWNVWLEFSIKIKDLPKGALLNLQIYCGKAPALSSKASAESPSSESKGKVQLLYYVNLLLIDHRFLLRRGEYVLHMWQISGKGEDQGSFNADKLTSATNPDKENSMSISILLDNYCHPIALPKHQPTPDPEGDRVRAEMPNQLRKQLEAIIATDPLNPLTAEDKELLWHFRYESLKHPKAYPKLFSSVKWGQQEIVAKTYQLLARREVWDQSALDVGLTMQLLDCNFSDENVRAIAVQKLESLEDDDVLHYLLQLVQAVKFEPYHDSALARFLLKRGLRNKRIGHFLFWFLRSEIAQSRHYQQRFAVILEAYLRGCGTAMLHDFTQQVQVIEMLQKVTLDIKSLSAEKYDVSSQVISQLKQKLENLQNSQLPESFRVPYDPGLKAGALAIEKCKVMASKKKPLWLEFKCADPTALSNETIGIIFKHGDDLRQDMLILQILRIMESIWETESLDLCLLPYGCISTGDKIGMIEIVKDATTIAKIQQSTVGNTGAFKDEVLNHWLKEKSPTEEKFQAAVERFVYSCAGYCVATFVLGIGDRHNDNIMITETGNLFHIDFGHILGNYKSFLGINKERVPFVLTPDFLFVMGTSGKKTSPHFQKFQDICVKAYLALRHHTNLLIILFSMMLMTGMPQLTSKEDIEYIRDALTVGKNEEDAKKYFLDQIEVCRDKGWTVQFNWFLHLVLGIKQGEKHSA
Entries and their IC50 values follow.

Below are worked cases with known answers.
INSERT INTO measurements (molecule, assayed_target, meas_value) VALUES
  ('Nc1nc2cc(-c3ccc4ncc(C(=O)N5CCOCC5)n4c3)cc(F)c2o1 [compound 360]', 'p110γ (Homo sapiens (Human))', '< 0.1 µM'),
  ('C[C@H]1CN(c2cnc3ccc(-c4ccc5oc(N)nc5c4)cc3c2)CCN1 [compound 396]', 'p110γ (Homo sapiens (Human))', '< 10 µM'),
  ('Nc1nc2cc(-c3ccc4ncc(N5CC(N6CCNC(=O)C6)C5)nc4c3)ccc2o1 [compound 325]', 'p110γ (Homo sapiens (Human))', '< 0.1 µM');

Challenge: # IC50 lookup, item Nc1nc2cc(-c3ccc4ncc(N5CC(N6CCOCC6)C5)nc4c3)cc(Cl)c2o1 [compound 358]
Response given: < 1 µM

Challenge: // query IC50 value for entry CN(C)[C@H]1CCN(c2cnc3ccc(-c4ccc5oc(N)nc5c4)cc3n2)C1 [compound 382]
Response given: < 1 µM

Challenge: Can you look up the measured IC50 of COCCn1cnc2ccc(-c3ccc4oc(N)nc4c3)cc2c1=O [compound 272] for me?
Response given: < 10 µM

Challenge: Endpoint output: IC50 of C[C@H]1CN(c2cnc3ccc(-c4ccc5nc(N)oc5c4)cc3n2)CCN1 [compound 309] . Value?
Response given: < 10 µM

Challenge: If you can, please state the reported IC50 value of Nc1nc2ccc(-c3ccc4nc(N)sc4c3)cc2o1 [compound 243] .
Response given: < 0.1 µM

Challenge: Consider the molecule shown here: NC(=O)[C@H]1CCCN1C(=O)c1cnc2ccc(-c3ccc4oc(N)nc4c3)cn12 [compound 260] What is its recorded IC50?
Response given: < 10 µM

----------
target: p110α/p85α (Homo sapiens (Human), UniProt P42336); experiment: PI 3-Kinase (human) HTRF assay, p110α/p85α; type: biochemical; conditions: in vitro; read-out: PI3K α IC50
Sequence (P42336 whole entry): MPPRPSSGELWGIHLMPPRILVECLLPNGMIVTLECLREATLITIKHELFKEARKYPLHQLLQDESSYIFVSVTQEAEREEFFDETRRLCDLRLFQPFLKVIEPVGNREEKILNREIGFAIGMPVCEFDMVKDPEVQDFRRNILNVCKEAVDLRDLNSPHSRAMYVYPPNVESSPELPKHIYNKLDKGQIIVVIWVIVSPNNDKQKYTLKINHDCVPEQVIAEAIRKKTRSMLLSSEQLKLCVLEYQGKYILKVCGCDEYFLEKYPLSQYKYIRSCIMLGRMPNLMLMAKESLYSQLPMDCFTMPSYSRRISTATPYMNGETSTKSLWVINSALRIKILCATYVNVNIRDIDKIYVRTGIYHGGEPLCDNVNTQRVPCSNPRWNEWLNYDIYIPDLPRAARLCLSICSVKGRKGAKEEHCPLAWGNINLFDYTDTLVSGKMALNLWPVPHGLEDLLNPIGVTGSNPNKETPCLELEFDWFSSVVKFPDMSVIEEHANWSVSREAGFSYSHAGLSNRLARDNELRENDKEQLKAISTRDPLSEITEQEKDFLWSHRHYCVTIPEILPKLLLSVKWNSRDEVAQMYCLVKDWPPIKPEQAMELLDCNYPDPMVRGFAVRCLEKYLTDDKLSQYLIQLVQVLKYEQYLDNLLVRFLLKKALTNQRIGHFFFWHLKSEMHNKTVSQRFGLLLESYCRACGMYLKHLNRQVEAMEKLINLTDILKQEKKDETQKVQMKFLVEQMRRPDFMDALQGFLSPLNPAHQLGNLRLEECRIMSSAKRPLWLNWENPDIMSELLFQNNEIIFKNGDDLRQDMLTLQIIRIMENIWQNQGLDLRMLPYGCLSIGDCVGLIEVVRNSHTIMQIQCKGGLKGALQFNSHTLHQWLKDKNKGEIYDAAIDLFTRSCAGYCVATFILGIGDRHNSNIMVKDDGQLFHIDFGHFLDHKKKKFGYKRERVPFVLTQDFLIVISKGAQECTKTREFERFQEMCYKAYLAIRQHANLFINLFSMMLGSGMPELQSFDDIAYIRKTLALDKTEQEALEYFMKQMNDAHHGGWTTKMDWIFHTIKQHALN
Sequence (P27986 whole entry partner): as the sequence (P27986 whole entry partner) above
pIC50: −log10 of the molar value.
Measurement Name: pIC50

Solved cases (3 shown):
INSERT INTO results (compound, meas_value) VALUES
  ('Cc1cc2oc(N)nc2cc1-c1ccc2ncc(N3CCN[C@@H](C)C3)nc2c1', '> 5.00'),
  ('Nc1nc2cc(-c3ccc4ncc(N5CC(N6CCN(C7CC7)CC6)C5)nc4c3)ccc2o1', '> 7.00'),
  ('CC(C)N1CCN(C2CN(c3cnc4ccc(-c5ccc6oc(N)nc6c5)cc4n3)C2)CC1', '> 7.00');

Challenge: Need pIC50, item Nc1nc2cc(-c3ccc4ncc(N5CC(N6CCC(O)CC6)C5)nc4c3)ccc2o1
Response given: > 6.00

Challenge: Given the entry CS(=O)(=O)N1CCN(C2CN(c3cnc4ccc(-c5ccc6oc(N)nc6c5)cc4n3)C2)CC1 , report its measured pIC50.
Response given: > 7.00

Challenge: Suppose we examine the compound CC(=O)Nc1nc(C)c(-c2ccc3oc(N)nc3c2)s1 ; what pIC50 value has been reported?
Response given: > 6.00

Challenge: Using the record for CN1CCN(C2CCN(c3cnc4ccc(-c5ccc6oc(N)nc6c5)cc4n3)CC2)CC1 , report its pIC50.
Response given: > 7.00

Challenge: Which measured pIC50 value corresponds to Nc1nc2cc(-c3ccc4ncc(N5CC(N6CC[C@H](O)C6)C5)nc4c3)ccc2o1 ?
Response given: > 7.00

Challenge: Given CCN1CCN(c2cnc3ccc(-c4ccc5oc(N)nc5c4)cc3n2)C(=O)C1 , state its recorded pIC50.
Response given: > 5.00

Challenge: Query: pIC50; subject: Nc1cn2cc(-c3ccc4oc(N)nc4c3)ccc2n1
Response given: > 6.00

Challenge: Param item = C[C@H]1CN(c2cnc3ccc(-c4ccc5sc(N)nc5c4)cc3n2)CCN1 ; retrieve measured pIC50.
Response given: > 6.00

----------
Each entry below carries its recorded pIC50.
biological target: p110δ/p85α (Homo sapiens (Human)); assay: PI 3-Kinase (human) HTRF assay, p110δ/p85α; type: biochemical; conditions: in vitro; read-out: PI3K δ IC50
pIC50: −log10 of the molar value.

Before answering, review these 8 worked examples.
INSERT INTO results (molecule, meas_value) VALUES
  ('CC1(C)CN(c2cnc3ccc(-c4ccc5oc(N)nc5c4)cc3n2)CCN1 [compound 336]', '> 5.00'),
  ('Nc1nc2cc(-c3ccc4ncc(N5CCC(n6ccnc6)CC5)nc4c3)ccc2o1 [compound 345]', '> 6.00'),
  ('Nc1nc2cc(-c3ccc4ncc(N5CCN(C(=O)CN6CCCC6)CC5)nc4c3)ccc2o1 [compound 278]', '> 5.00'),
  ('Nc1nc2cc(-c3nc(N4CCOCC4)c4cnn(C5CCNCC5)c4n3)ccc2o1 [compound 348]', '> 5.00'),
  ('CC(=O)Nc1cn2cc(-c3ccc4oc(N)nc4c3)ccc2n1 [compound 234]', '> 7.00'),
  ('CS(=O)(=O)N1CCN(C2CCN(c3cnc4ccc(-c5ccc6oc(N)nc6c5)cc4n3)CC2)CC1 [compound 377]', '> 5.00'),
  ('CN(C)CC(=O)N1CCN(c2cnc3ccc(-c4ccc5oc(N)nc5c4)cc3n2)CC1 [compound 217]', '> 6.00'),
  ('CN(C)[C@H]1CCN(c2cnc3ccc(-c4ccc5oc(N)nc5c4)cc3n2)C1 [compound 382]', '> 5.00');

Challenge: Entry under review: CS(=O)(=O)CCN1CCC(NC(=O)c2cnc3ccc(-c4ccc5oc(N)nc5c4)cn23)CC1 [compound 199] . Reported pIC50?
Response given: > 7.00

----------
Recorded measurements of IC50, one per entry
biological target: p110α/p85α (Homo sapiens (Human), UniProt P42336); experiment: PI 3-Kinase (human) HTRF assay, p110α/p85α; assay type: biochemical; settings: read-out: PI3K α IC50

Worked examples follow.
INSERT INTO results (entry_smiles, measurement_name, meas_value) VALUES
  ('CN1CCN(C(=O)c2cnc3ccc(-c4ccc5oc(N)nc5c4)cn23)CC1', 'IC50', '< 100 nM'),
  ('Nc1nc2cc(-c3ccc4ncc(C(=O)N5CCS(=O)(=O)CC5)n4c3)ccc2o1', 'IC50', '< 1000 nM'),
  ('Cn1c(=O)n(-c2ccc(C(C)(C)C#N)cc2)c2c3cc(-c4ccc5oc(N)nc5c4)ccc3ncc21', 'IC50', '< 100 nM');

In the following, a different compound is considered.
Challenge: Which IC50 is reported for this compound? Nc1nc2cc(-c3ccc4ncn(C5CCNCC5)c(=O)c4c3)ccc2o1
Response given: < 100 nM

Where these numbers come from: patent US11547697B2
